Listed sequences paired with reported binding signal
Target: OsWRKY34 (Oryza sativa, UniProt Q0JBA9 1-250)
Sequence (Q0JBA9 entry or part of it): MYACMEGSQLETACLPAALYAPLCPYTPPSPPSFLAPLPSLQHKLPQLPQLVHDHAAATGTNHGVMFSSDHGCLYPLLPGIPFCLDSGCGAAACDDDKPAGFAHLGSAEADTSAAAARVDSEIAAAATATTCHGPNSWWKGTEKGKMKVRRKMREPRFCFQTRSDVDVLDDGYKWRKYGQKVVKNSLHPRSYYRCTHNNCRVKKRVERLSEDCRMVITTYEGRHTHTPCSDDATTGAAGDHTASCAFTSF
Test: protein-binding microarray (RPBM); PBS, 2% BSA, 51.3 ng/ul salmon testes DNA, 50 uM zinc acetate, 200 nM TF, 25 C, 1 h; high values mean tight binding
Details: protein: recombinant; tags: N-terminal polyhistidine and DsRed monomer fusion (pET32a); label: CyDye5-dUTP incorporated in the synthesized complementary strand; 3' TTTTT single-stranded linker to array surface; dsDNA, one strand shown
The full ranking holds about 68,000 sequences; the median of “fluorescence intensity (a.u.)” is about 9,100, and the highest 2% start at about 16,000. Only a selection was taken, and the highest values are over-represented in it overall.
recorded endpoint: binding signal

> print(dat)
                                biosequence  recorded.endpoint                                value
1  CGATCTCTCTCTCTCACACACCCGCCTCACCCTCACCGCCCGGAGTCACCTAGTGCAG     binding signal  10800 fluorescence intensity (a.u.)
2  TGGTGTCTCATAATTCTCTACATGGTATCAAATACTGGTTCGGAGTCACCTAGTGCAG     binding signal   9610 fluorescence intensity (a.u.)
3  CAGGATTGCTTGGAGATTCGTGCGGGGACGCGCGGGGTGACGGAGTCACCTAGTGCAG     binding signal   9720 fluorescence intensity (a.u.)
4  CTCCGCCGTCGCGTCCCCGCCGCCGCCGCCCGCCTTCCCCCGGAGTCACCTAGTGCAG     binding signal   9960 fluorescence intensity (a.u.)
5  GACTAATAGCTTCAGTTTTGCATGCGATGGCCACTCAAATCGGAGTCACCTAGTGCAG     binding signal  10100 fluorescence intensity (a.u.)
6  ATTCTGTAACCCGCTGCGGGCAACGGCCGGACGTGCAATCCGGAGTCACCTAGTGCAG     binding signal   9630 fluorescence intensity (a.u.)
7  GGCAATGCTTCACCGTCGCTTGCACCCCTTTCTCATGTGTCGGAGTCACCTAGTGCAG     binding signal   9790 fluorescence intensity (a.u.)
8  GTGGAATCGTTCGTTCTTGACTTCACCTACCAAGATTTGCCGGAGTCACCTAGTGCAG     binding signal   8640 fluorescence intensity (a.u.)
9  AGTGTCTGACACTACTTAAGAAACCATAGCAGTGCTAAAGCGGAGTCACCTAGTGCAG     binding signal  31200 fluorescence intensity (a.u.)

====

Target: OsWRKY34 (Oryza sativa, UniProt Q0JBA9 1-250)
Assay: protein-binding microarray (RPBM); PBS, 2% BSA, 51.3 ng/ul salmon testes DNA, 50 uM zinc acetate, 200 nM TF, 25 C, 1 h; high values mean tight binding
Details: protein: recombinant; tags: N-terminal polyhistidine and DsRed monomer fusion (pET32a); label: CyDye5-dUTP incorporated in the synthesized complementary strand; 3' TTTTT single-stranded linker to array surface; dsDNA, one strand shown
Over roughly 68,000 sequences, “fluorescence intensity (a.u.)” has its median near 9,100; the highest 2% begin near 16,000. This excerpt belongs to a sample that is enriched for the highest values.
recorded endpoint: binding signal

> print(dat)
                                 biosequence                                value
 1  GGCTGCCTGTGCATGGGAGGCGATGTGAGGGTGGGCAGGGCGGAGTCACCTAGTGCAG   9440 fluorescence intensity (a.u.)
 2  TTAACCTCTCTCTTAATTTCAGTTTGTTTGTTCGTTCGTTCGGAGTCACCTAGTGCAG   9010 fluorescence intensity (a.u.)
 3  TGATTGTGTTTGTAGACTTGGTTGGTATTGTTGAACGGATCGGAGTCACCTAGTGCAG  11800 fluorescence intensity (a.u.)
 4  CGGGAGGAGGGAGGTTGTTTCGTCTGGGGTTTGATTGGGACGGAGTCACCTAGTGCAG  18200 fluorescence intensity (a.u.)
 5  CTTCTTCTATATCTGTAATCTTTCCTTATCTCCTCCCATGCGGAGTCACCTAGTGCAG   8520 fluorescence intensity (a.u.)
 6  GTGGCGTCAAAGTATTGAGGGCGGGGATGCGGCCACCGTACGGAGTCACCTAGTGCAG   8640 fluorescence intensity (a.u.)
 7  CTATAATTATTTGTCGACTAAATCTGCCTTTCATCTTTCTCGGAGTCACCTAGTGCAG   8160 fluorescence intensity (a.u.)
 8  TGCTTTCGTTGGGTTGGGGAAGGGGAGGCGTCGCTTGGTCCGGAGTCACCTAGTGCAG  17100 fluorescence intensity (a.u.)
 9  CCTCCTTTTGACTCAGCAAGTCAATTGTGGTCAACCTGCCCGGAGTCACCTAGTGCAG   8970 fluorescence intensity (a.u.)
10  AATATATGACGCCGTTAACTTTTCGAACAACATTTGACTACGGAGTCACCTAGTGCAG   9760 fluorescence intensity (a.u.)
11  TTTTGACTTTCTCTTACACTGTTTGACCATTTATCTTATTCGGAGTCACCTAGTGCAG  14000 fluorescence intensity (a.u.)
12  CTACACTGTCTTGCTCGCTCATTGTCTCTCTCTGCATTTGCGGAGTCACCTAGTGCAG   8580 fluorescence intensity (a.u.)
13  ACCTAGATCCACCTCGTTAGTTTATTTTGTGAGAGTGCTCCGGAGTCACCTAGTGCAG   9140 fluorescence intensity (a.u.)
14  ATTTTAATGTATGACGCCGTTGACTTTTTGTCCAACGTTTCGGAGTCACCTAGTGCAG  25600 fluorescence intensity (a.u.)
15  CCGGGTCACACATCCCCTCATACTCGGGCCTTGTTTAGTTCGGAGTCACCTAGTGCAG   8740 fluorescence intensity (a.u.)
16  TCTTACTTGCATGTGAACACCTCTTTGTCGGTTTTTCCATCGGAGTCACCTAGTGCAG  10400 fluorescence intensity (a.u.)
17  GTTGACCGTTGACCTTTTTGTGGGTCAACTCAATCAAGACCGGAGTCACCTAGTGCAG  16600 fluorescence intensity (a.u.)
18  TCTGTATGGTCTACTTGTTTGATTGATTGATAATTTTACACGGAGTCACCTAGTGCAG   9240 fluorescence intensity (a.u.)
19  AGGCGGAGGAGGGGAGGCGGAAGGGGTTCGCGTCGGCGGCCGGAGTCACCTAGTGCAG  12200 fluorescence intensity (a.u.)
20  TGTTTGACACCATTGACTTTTTAGTATGTGTTTGACCATTCGGAGTCACCTAGTGCAG  13200 fluorescence intensity (a.u.)
21  TTCTTTTTATATTTTCTTTTGTTGGTTTTTTTCGTCTCAACGGAGTCACCTAGTGCAG  13200 fluorescence intensity (a.u.)
22  TAGGAGGTGGCGGCCGGTGGTGGCGGATCCGGCGGCGGGGCGGAGTCACCTAGTGCAG   8840 fluorescence intensity (a.u.)
23  AGGGGAGAGGAGGGGAGGCGGCGCGGCGGCGAGGAGGGGACGGAGTCACCTAGTGCAG  10200 fluorescence intensity (a.u.)
24  CGATGTGATTTAGTGAAAAATTTTAGGGTGGGCTAAACAGCGGAGTCACCTAGTGCAG  11500 fluorescence intensity (a.u.)
25  TTTGGGGTTTGAGAAGGTTGAGGAGGAGTTGGGAGGTTGACGGAGTCACCTAGTGCAG   9580 fluorescence intensity (a.u.)
26  AGGGGAGGCGTCGCTTGGTCGCCATCTTCGTCGTTTGCTTCGGAGTCACCTAGTGCAG   9720 fluorescence intensity (a.u.)
27  GACTTACTTTATTGTCTACAGTACTTTAAGCACAACTTTTCGGAGTCACCTAGTGCAG   8360 fluorescence intensity (a.u.)
28  CAAAACAGCCGCGTTTTGGCTCACTAGTCACTTGTTTGACCGGAGTCACCTAGTGCAG   9710 fluorescence intensity (a.u.)
29  CCATCAGTTGACCATGTGTTGACCGTTAACTCTCAAGTAACGGAGTCACCTAGTGCAG   9190 fluorescence intensity (a.u.)
30  ATCTACTACTATTCTACTCTACTCGCAAGTCTCACAAACACGGAGTCACCTAGTGCAG   8740 fluorescence intensity (a.u.)
31  TACATGTCTTAGAGCTACACATCTCTGATTTTTTTTTACACGGAGTCACCTAGTGCAG   8950 fluorescence intensity (a.u.)
32  ACACCATTGACTTTTTAATATGTGTTTGACCATTCGTCTTCGGAGTCACCTAGTGCAG  19200 fluorescence intensity (a.u.)
33  GATTAGGGTTGTTGCCGGGGTTTGTTTGGTGTTGCGGCGGCGGAGTCACCTAGTGCAG   8510 fluorescence intensity (a.u.)
34  CTCCCGTCAGTTGACCGTGTGTTGACCGTTAATTCTCAAGCGGAGTCACCTAGTGCAG  17500 fluorescence intensity (a.u.)
35  TTTACAGTTGATTTTGACGGGTTTGTTGGCGAGGATTTTTCGGAGTCACCTAGTGCAG   9360 fluorescence intensity (a.u.)
36  TAAATGTTTAACGTTGTTGACTTTTTTAAACATGTTTGACCGGAGTCACCTAGTGCAG  13500 fluorescence intensity (a.u.)
37  AGCCACAAATCCTTATTCGTTCAATTGTTTTTCTTCCTCTCGGAGTCACCTAGTGCAG   8140 fluorescence intensity (a.u.)
